biological target: Cytochrome P450 2C9 (Homo sapiens); assay: Cytochrome P450 Family 2 Subfamily C Member 9 (CYP2C9) small molecule antagonists: luciferase reporter qHTS assay (AID 1671198); settings: P450-Glo CYP2C9 enzyme assay, luciferin luminescence; series mostly up to 115 µM; further: on the % scale 0 is the no-effect control and ±100 the full control effect; nearly all actives have a fitted effect of over 50% in size
Results filed as inconclusive are left out. Calls of active or inactive are those of the source. The call rests on the fitted dose curve; in most records, active means well fitted inhibition curve with a large enough effect in the repeat runs; inconclusive means weak or mixed curves; inactive means no such curve, though single readings can be large or run the other way.
Experimental endpoint: activity change, negative = inhibition

Worked set:
I am curious: what activity change, negative = inhibition value has been reported for COc1cc(C(C)C)ccc1C ?
-6.13% [at 23.6 µM] (inactive)

What value of measured activity change, negative = inhibition is listed for CCCCCCCCCCCCS(=O)(=O)Cl ?
-14.1% [at 23.6 µM] (inactive)

Reported activity change, negative = inhibition for CCCCNc1ccc(NCCCC)c2c1C(=O)c1ccccc1C2=O : what is it?
-1.25% [at 23.6 µM] (inactive)

Field request: activity change, negative = inhibition | item: O=C(O)CN(CCCN(CC(=O)O)CC(=O)O)CC(=O)O
-3.48% [at 23.6 µM] (inactive)

Now let's try a different one.
Given the compound C=CC(=O)OCCOC1C2CCC1C1CC=CC12 (stereo not given) , what is its reported activity change, negative = inhibition?
-18.2% [at 23.6 µM] (inactive)

----------
Test: qHTS RealTime-Glo MT Cell Viability Assay in HepG2 cells - 32 hour (AID 1224877); further: on the % scale 0 is the no-effect control and ±100 the full control effect; nearly all actives have a fitted effect of over 55% in size
Conditions: RealTime-Glo luminescence; series mostly up to 76.8 µM
Source text: U.S. Tox21 Program National Center for Advancing Translational Sciences [NCATS] NIH Chemical Genomics Center [NCGC] U.S. Environmental Protection Agency [EPA] National Institutes of Environmental Health Sciences [NIEHS] National Toxicology Program [NTP] U.S. Food and Drug Administration [FDA] Tox21 Assay Overview: Measure of cell viability is critical in the cell-base assay. Analysis of cell viability is necessary for the characterization of cell responses to cytotoxic drugs and environmental stress. […]
Records with an inconclusive call do not appear. Active and inactive are the calls of the source. Calls come from the whole dose curve; as a rule, active = well fitted cell-killing curve with a large enough effect in the repeat runs; inconclusive = weak or mixed curves; inactive = flat fitted curve, though single readings scatter.
Experimental endpoint: outcome

Would you mind telling me what outcome value was observed for CCc1c(C)cc(N)c(CC)c1N ?
inactive

Can you share its outcome? I mean this molecule: CCCCCc1ccc(O)cc1
inactive

Please report the recorded outcome for NC(=O)c1ccccc1Cl .
inactive

----------
assay: qHTS assay to identify small molecule antagonists of the estrogen related receptor signaling pathway with the pleiotropic PPARgamma coactivator (PGC) cell viability counter screen (AID 1224822;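 further: viability read after 17.5 h compound exposure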); conditions: ERR/PGC reporter cell line viability counter screen; series mostly up to 46.1 µM
Records with an inconclusive call do not appear. Active and inactive are the calls of the source. Calls come from the whole dose curve; as a rule, active = well fitted cell-killing curve with a large enough effect in the repeat runs; inconclusive = weak or mixed curves, or effect the other way; inactive = flat fitted curve, though single readings scatter.
# valid calls are active, inactive; nothing else

Which outcome did this test record for the molecule CC1(C)CCC2=C(O1)c1ccccc1C(=O)C2=O ?
active

Tell me the assay call for CCC1(O)CC2CN(CCc3c([nH]c4ccccc34)[C@@](C(=O)OC)(c3cc4c(cc3OC)N(C)C3[C@]45CCN4CC=C[C@@](CC)([C@@H](OC(C)=O)[C@]3(O)C(=O)OC)[C@H]45)C2)C1 (stereo partly specified) please.
inactive

// outcome(item) with item = O=C1Cc2c([nH]c3ccc(Br)cc23)-c2ccccc2N1
inactive

Tell me the assay call for O=C1NC(=O)C(c2ccccc2[N+](=O)[O-])=C1Nc1ccc(O)c(Cl)c1 please.
inactive

Entry Nc1nc(N)c2nc(CNc3ccc(C(=O)NC(CCC(=O)O)C(=O)O)cc3)cnc2n1 (stereo unspecified) : call = ?
inactive

***
Which outcome was assigned to O=C(O)CCC(C(=O)O)N1C(=O)c2ccccc2C1=O (stereo unspecified) in this test?
inactive

Recorded test call requested for Cc1nc(N=Nc2ccc(C(=O)O)cc2)c(COP(=O)(O)O)c(C=O)c1O
inactive

Please let me know the test result on file for C[C@H](Cc1ccc(O)c(O)c1)[C@@H](C)Cc1ccc(O)c(O)c1 .
inactive

Kindly provide the recorded test outcome for the following molecule: N[C@@H](CS(=O)O)C(=O)O
inactive

Can you look up the reported call for CCCn1c(=O)c2[nH]c(-c3ccc(S(=O)(=O)O)cc3)nc2n(CCC)c1=O for me?
inactive

Identify the outcome logged in this assay for the molecule shown: CC[C@@H](C)[C@H]1O[C@]2(CC[C@@H]1C)C[C@@H]1C[C@@H](C/C=C(\C)[C@@H](O[C@H]3C[C@H](OC)[C@@H](O[C@H]4C[C@H](OC)[C@@H](O)[C@H](C)O4)[C@H](C)O3)[C@@H](C)/C=C/C=C3\CO[C@@H]4[C@H](O)C(C)=C[C@@H](C(=O)O1)[C@]34O)O2
active

Which result was noted for this molecule in the test: N[C@H](C(=O)O)c1cc(O)cc(O)c1
inactive

Check the results log: what was the call for COC(=O)[C@H]1[C@H]2C[C@H]3c4[nH]c5ccccc5c4CCN3C[C@H]2CC[C@@H]1O ?
inactive

Data provenance is PubChem BioAssay (Tox21).
